assay.remarks: Inhibition of CREB-mediated gene transcription in human HEK293T cells by renilla luciferase reporter assay
Format: cell-based
experimental.context: HEK-293T
property.name: IC50 (µM)

Task: Query: IC50; subject: `O=C(Nc1ccc(I)cc1)c1cc2ccccc2cc1O`
Result: 4.98

[1] O=C(Nc1ccccc1Cl)c1cc2ccccc2cc1O
[2] O=C(Nc1ccc(F)c(F)c1)c1cc2ccccc2cc1O
[3] O=C(Nc1ccc(O)cc1)c1cc2ccccc2cc1O
Task: Falling order of IC50, please. To answer, write out the labels according to the requested order.
Result: 3, 1, 2
(3: 40.5 µM, 1: 5.72 µM, 2: 3.73 µM)
